inhibition for assorted molecules
Molecular target: Glucose transporter (Leishmania mexicana) (UniProt O61059)
Assay: ST_JUDE_LEISH: Cytotoxicity at 2uM final concentration against transgenic Leishmania Mexicana promastigotes LmGT2 that are glucose transport deficient and complemented with the L. Mexicana glucose transporter 2. Activity is measured by DNA content using SYBR green in vitro
Type: functional
Expressed in %, but write only the number.

Molecule: O=C(C=Cc1ccc(Cl)c(Cl)c1)NCCCCCN1CCC(CCNS(=O)(=O)c2ccc(Br)cc2)CC1
Study System: Glucose transporter (Leishmania mexicana) (UniProt O61059)
Endpoint Name: inhibition
Numeric Result: 2.53
--
Molecule: O=C(Nc1cccc(CN2CCN(C(=O)c3ccccc3)CC2)c1)c1ccco1
Study System: Glucose transporter (Leishmania mexicana) (UniProt O61059)
Endpoint Name: inhibition
Numeric Result: 7.1
--
Molecule: CCNC[C@@H](O)[C@H](Cc1ccccc1)NC(=O)c1cc2c3c(c1)c(CC)cn3CCS(=O)(=O)N2C
Study System: Glucose transporter (Leishmania mexicana) (UniProt O61059)
Endpoint Name: inhibition
Numeric Result: -0.02
--
Molecule: COc1cc(F)c2ncc(Cl)c(CCN3CCC(NCc4ccc5c(c4)OCCO5)CC3)c2c1
Study System: Glucose transporter (Leishmania mexicana) (UniProt O61059)
Endpoint Name: inhibition
Numeric Result: 68.8
--
Molecule: Cc1ccccc1Cn1c(CN2CCC(C(=O)NC3CC3)CC2)cc2ccccc21
Study System: Glucose transporter (Leishmania mexicana) (UniProt O61059)
Endpoint Name: inhibition
Numeric Result: 5.38

Next:
stdin: GET /values?readout=inhibition&system=Glucose transporter (Leishmania mexicana) (UniProt O61059)&item= Cc1ccc(C(=O)Nc2ccc(C)c(OC3CCN(Cc4ccco4)C3)c2)cc1 (stereo not given)
stdout: 7.13

Hey, just so you know, these numbers are from ChEMBL document CHEMBL3433997.
